Test: JACKPOT2 single-ascending-dose plasma PK, healthy participants in USA
Type: in vivo, human
Conditions: human, plasma, oral; single dose 20 mg; median (min, max); read-out: t1/2 (converted)
readout-type: half-life (h)
Numbers only; they are read as h.

Query block: Give reported half-life value for COc1nn(C)cc1Nc1nccc(-c2c[nH]c3c(NC(=O)[C@@H](C)N4CCN(C)CC4)cccc23)n1 [golidocitinib]
Result block: 51.3

###

Experiment: JACKPOT3 single-ascending-dose plasma PK, healthy Chinese participants
Format: in vivo, human
Details: human, plasma, oral; single dose 100 mg; geometric mean (CV%)
readout-type: Cmax

Query block: Retrieve Cmax measured for COc1nn(C)cc1Nc1nccc(-c2c[nH]c3c(NC(=O)[C@@H](C)N4CCN(C)CC4)cccc23)n1 and print it.
Result block: 184 ng/mL
